Target: N-phos in mouse sEH (Mus musculus, UniProt P34914)
Sequence (P34914 1-554): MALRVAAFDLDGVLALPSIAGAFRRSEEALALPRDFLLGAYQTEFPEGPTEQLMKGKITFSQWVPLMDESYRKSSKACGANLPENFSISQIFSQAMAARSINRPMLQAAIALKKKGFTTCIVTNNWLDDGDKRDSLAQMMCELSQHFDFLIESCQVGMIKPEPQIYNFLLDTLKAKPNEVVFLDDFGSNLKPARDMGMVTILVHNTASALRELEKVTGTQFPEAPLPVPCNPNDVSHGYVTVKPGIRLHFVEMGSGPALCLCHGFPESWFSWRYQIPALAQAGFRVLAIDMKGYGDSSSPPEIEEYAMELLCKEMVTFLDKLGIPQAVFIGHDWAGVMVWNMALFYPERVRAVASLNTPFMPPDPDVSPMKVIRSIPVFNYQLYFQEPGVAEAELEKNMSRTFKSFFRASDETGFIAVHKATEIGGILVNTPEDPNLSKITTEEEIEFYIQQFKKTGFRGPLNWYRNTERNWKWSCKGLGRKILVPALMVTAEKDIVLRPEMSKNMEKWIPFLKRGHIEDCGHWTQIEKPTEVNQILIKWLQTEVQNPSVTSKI
Endpoint: Ki (µM)
Write the value in µM as a bare number.

Example entries and their recorded answers appear below.
• N#Cc1ccc(C[C@H](NC(=O)OCC2c3ccccc3-c3ccccc32)C(=O)O)cc1 [Compound 67, Fmoc-L-Phe(4-CN)] = 1.1
• CC(C)(C)OC(=O)N[C@@H](Cc1ccc(OCc2ccccc2)cc1)C(=O)O [Compound 23, Boc-L-Tyr(Bzl)] = 9

Task: Request the reported Ki associated with CC(=O)N[C@@H](CSC/C=C(\C)CC/C=C(\C)CCC=C(C)C)C(=O)O [AFC, N-Acetyl-S-farnesyl-L-cysteine, reference compound]
Output: 33

---

Target chain: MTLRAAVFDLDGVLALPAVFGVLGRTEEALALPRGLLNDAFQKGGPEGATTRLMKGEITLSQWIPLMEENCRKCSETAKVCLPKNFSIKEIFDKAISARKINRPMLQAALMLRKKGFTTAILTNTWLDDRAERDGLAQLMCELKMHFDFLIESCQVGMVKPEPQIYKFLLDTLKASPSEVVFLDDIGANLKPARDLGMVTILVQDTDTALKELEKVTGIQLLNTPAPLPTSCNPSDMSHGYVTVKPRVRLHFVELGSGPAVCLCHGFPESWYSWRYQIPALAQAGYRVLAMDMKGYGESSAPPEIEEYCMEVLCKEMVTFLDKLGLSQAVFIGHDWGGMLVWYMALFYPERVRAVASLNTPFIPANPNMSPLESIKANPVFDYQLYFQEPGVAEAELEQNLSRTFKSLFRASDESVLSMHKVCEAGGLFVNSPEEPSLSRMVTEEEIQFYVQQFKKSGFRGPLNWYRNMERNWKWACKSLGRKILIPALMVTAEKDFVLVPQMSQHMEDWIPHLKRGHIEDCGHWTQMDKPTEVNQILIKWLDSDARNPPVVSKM
Endpoint: Ki (µM)
Write the value in µM as a bare number.

- N#Cc1ccc(C[C@H](NC(=O)OCC2c3ccccc3-c3ccccc32)C(=O)O)cc1: 26
- CC(C)(C)OC(=O)N[C@@H](Cc1ccc(OCc2ccccc2)cc1)C(=O)O: 0.89

Turning to the following compound.
Task: Request the reported Ki associated with CC(=O)N[C@@H](CSC/C=C(\C)CC/C=C(\C)CCC=C(C)C)C(=O)O [AFC, N-Acetyl-S-farnesyl-L-cysteine, reference compound]
Output: 1.1
